The entries below come with measured logP values attached.
Number, no unit, nothing else.

Illustrative cases are given below, each with its answer.
State the recorded logP for this entry: S=C=Nc1cccc(Cl)c1
3.36

State the recorded logP for this entry: CCOP(=O)(OCC)SCS(=O)C(C)(C)C (stereo not drawn)
2.66

State the recorded logP for this entry: Cc1ccccc1C(=O)C(C)CN1CCCCC1 (stereo not drawn)
3.69

State the recorded logP for this entry: O=C1CNC(=O)N1Cc1ccccc1
0.82

State the recorded logP for this entry: NS(=O)(=O)c1cc2c(cc1C(F)(F)C(F)(F)F)N=CNS2(=O)=O
1.05

State the recorded logP for this entry: CCCCCCOc1ccc(CC(=O)O)cc1
3.96

Others:
State the recorded logP for this entry: COC1N(C2CC(F)C(CO)O2)C(=O)NC(=O)C1(C)Cl (stereo not drawn)
0.18

State the recorded logP for this entry: OC[C@@H](O)[C@H]1O[C@@H]2O[C@H](C(Cl)(Cl)Cl)O[C@@H]2[C@H]1O
1.02

State the recorded logP for this entry: CCc1c(C)nc2cccc(C)n2c1=O
1.86

State the recorded logP for this entry: CNC(=O)N1C(=O)CN=C(c2ccccc2)c2cc([N+](=O)[O-])ccc21
1.76

State the recorded logP for this entry: NCC(O)c1ccc(O)cc1 (stereo not drawn)
-0.9

State the recorded logP for this entry: CNC12CCCCC1CC(O)c1ccccc12 (stereo not drawn)
1.84

State the recorded logP for this entry: OC(Cn1ccnc1)(c1ccccc1)c1ccc(Br)cc1 (stereo not drawn)
3.35

Where these numbers come from: the OPERA property sets (Mansouri et al. 2018)
